// reported EC50 for each item listed
# assay.system: TLR8 (Homo sapiens, UniProt Q9NR97)
# Construct: host or cells: HEK293 (HEK-BLUE-hTLR8)
# Sequence (Q9NR97 27-1041): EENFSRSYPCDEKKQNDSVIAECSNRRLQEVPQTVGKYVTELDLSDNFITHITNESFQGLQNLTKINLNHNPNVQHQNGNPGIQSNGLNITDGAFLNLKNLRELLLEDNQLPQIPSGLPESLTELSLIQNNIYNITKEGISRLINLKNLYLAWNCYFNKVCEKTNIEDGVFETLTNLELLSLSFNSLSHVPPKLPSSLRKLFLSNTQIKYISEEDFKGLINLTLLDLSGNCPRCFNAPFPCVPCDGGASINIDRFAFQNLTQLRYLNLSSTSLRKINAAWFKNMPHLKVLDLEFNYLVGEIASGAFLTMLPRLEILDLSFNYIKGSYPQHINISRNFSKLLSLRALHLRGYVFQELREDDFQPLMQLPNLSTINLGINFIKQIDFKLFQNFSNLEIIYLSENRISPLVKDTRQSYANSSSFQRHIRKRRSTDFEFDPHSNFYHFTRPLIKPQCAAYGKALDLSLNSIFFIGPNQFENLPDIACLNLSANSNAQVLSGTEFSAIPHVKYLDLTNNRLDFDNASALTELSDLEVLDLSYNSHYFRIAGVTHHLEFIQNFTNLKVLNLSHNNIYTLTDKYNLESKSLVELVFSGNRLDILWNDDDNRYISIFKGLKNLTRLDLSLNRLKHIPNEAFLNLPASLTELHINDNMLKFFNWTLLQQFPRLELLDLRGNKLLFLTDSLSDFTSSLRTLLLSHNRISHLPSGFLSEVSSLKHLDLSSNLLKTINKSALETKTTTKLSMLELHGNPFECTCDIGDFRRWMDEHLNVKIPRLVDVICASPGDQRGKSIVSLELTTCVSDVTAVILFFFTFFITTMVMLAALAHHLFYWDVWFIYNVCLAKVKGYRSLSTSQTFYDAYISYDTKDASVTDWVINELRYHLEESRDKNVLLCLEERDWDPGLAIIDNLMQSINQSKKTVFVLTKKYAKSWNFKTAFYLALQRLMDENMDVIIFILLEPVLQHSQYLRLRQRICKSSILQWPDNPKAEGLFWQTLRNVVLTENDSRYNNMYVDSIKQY
# assay.explanation: TLR8 cell based assay (HEK-BLUE-hTLR8, SEAP reporter linked to NF-κB activation)
# test.conditions: HEK-BLUE-hTLR8 cells, 24 h treatment, SEAP/QUANTI-Blue readout
# Method: In this assay, the bioactivity of compound of formula Iw as measured using a cell based assay. […] The activity of specific TLR agonists was assessed using the secretory embryonic alkaline phosphatase (SEAP) reporter gene that is linked to NF-κB activation in response to TLR stimulation. The SEAP activity was measured using the Quanti-Blue substrate (InvivoGen) after TLR agonist treatment. […] The data were analyzed using the GraphPad to get EC50 values and fitting dose response curves of the compounds.

In the examples that follow, each entry is paired with its recorded EC50.
I would be grateful if you could share the reported EC50 for CCCN(CCC)C(=O)C1=Cc2ccc(-c3ccc4c(=O)n(CCO)ccc4c3)cc2N=C(N)C1 [Compound 1-2-6] .
< 100 nM

Same question, CCCN(CCC)C(=O)C1=Cc2ccc(-c3ccc4c(=O)n(CCn5ccnc5)ccc4c3)cc2N=C(N)C1 [Compound 1-2-37] this time
< 100 nM

Next up: CCCN(CCC)C(=O)C1=Cc2ccc(-c3ccc4c(=O)n(Cc5nc(OC)cc(OC)n5)ccc4c3)cc2N=C(N)C1 [Compound 1-2-46]
< 100 nM

Record: CCCN(CCC)C(=O)C1=Cc2ccc(-c3ccc4c(=S)n(Cc5cnccn5)ccc4c3)cc2N=C(N)C1 [Compound 1-14-5]
< 100 nM

Next molecule up: CCCN(CCO)C(=O)C1=Cc2ccc(-c3ccc4c(=O)n(CC(N)=O)ccc4c3)cc2N=C(N)C1 [Compound 1-12-1]
100 to 1000 nM

Further cases:
GET /values?readout=EC50&item= CCCN(CCC)C(=O)C1=Cc2ccc(-c3ccc4c(=O)n(CC(=O)NC)cnc4c3)cc2N=C(N)C1 [Compound 1-7-3]
< 100 nM

Cool, now CCCN(CCC)C(=O)C1=Cc2ccc(-c3ccc4c(=O)n(CCS(C)(=O)=O)cnc4c3)cc2N=C(N)C1 [Compound 1-7-2]
100 to 1000 nM

---

Reported pEC50 values for a set of compounds
# assay.system: TLR8 (Homo sapiens, UniProt Q9NR97)
# Construct: host or cells: HEK293 (HEK-BLUE-hTLR8)
# assay.explanation: TLR8 cell based assay (HEK-BLUE-hTLR8, SEAP reporter linked to NF-κB activation)
# test.conditions: HEK-BLUE-hTLR8 cells, 24 h treatment, SEAP/QUANTI-Blue readout
pEC50: −log10 of the molar value.

Query the reported pEC50 for TLR8 (Homo sapiens, UniProt Q9NR97); item: CCCN(CCC)C(=O)C1=Cc2ccc(-c3ccc4c(=O)n(Cc5ccccc5)ncc4c3)cc2N=C(N)C1
6.00 to 7.00

Now give it for CCCN(CCC)C(=O)C1=Cc2c(F)cc(-c3ccc4c(=O)n(CC(=O)NC)c(=O)n(C)c4c3)cc2N=C(N)C1 too.
> 7.00

Repeat for the following compound: CCCN(CCC)C(=O)C1=Cc2ccc(-c3ccc4c(c3)CN(CCO)C4=O)cc2N=C(N)C1
> 7.00

Please do the same for CCCN(CCC)C(=O)C1=Cc2ccc(-c3ccc4c(c3)CCN(CC)C4=O)cc2N=C(N)C1 as well.
6.00 to 7.00

***
Please state recorded pEC50 (tested on TLR8 (Homo sapiens, UniProt Q9NR97)) of CCCN(CCC)C(=O)C1=Cc2ccc(-c3ccc4c(=O)n(CCO)c(=O)n(C)c4c3)cc2N=C(N)C1
> 7.00

And for CCCN(CCC)C(=O)C1=Cc2ccc(-c3ccc4c(=O)n(CCc5ccccn5)ccc4c3)cc2N=C(N)C1 ?
6.00 to 7.00

Recorded values, source patent US10669252B2.
